# Test system: kochia
# ASSAY REMARKS: Test C postemergence
# Type: in vivo, Bassia scoparia
# CONDITION NOTES: 125 g ai/ha, postemergence, 10 days; 0 to 100 scale, 0 no effect, 100 complete control
MEASURED PROPERTY: Plant response rating, Kochia
Lab note: record the figure alone, no unit after it.

Below, each entry is followed by its recorded Plant response rating, Kochia result.
CC(C)c1ncn(-c2cccc(C(=O)N3CC(C(F)(F)F)Oc4c(Cl)cccc43)c2)n1 (single isomer, unassigned) [Compound 289]	80
Cc1cccc2c1O[C@@H](C)CN2C(=O)c1cc(-n2cnc(C(C)C)n2)cc2ccoc12	90
COC[C@H]1CN(C(=O)c2cc(-n3cnc(C(C)(C)C)n3)ccc2C)c2cccc(Cl)c2O1	80
Cc1ccc(-n2cnc(CC3CC3)n2)cc1C(=O)N1C[C@H](C)Oc2c(Cl)cccc21	70

// next entry
Find the measured Plant response rating, Kochia of `CCc1ncn(-c2ccc(OC)c(C(=S)N3C[C@H](C)Oc4c(C)cccc43)c2)n1` and report it.
60
